Test: in vitro
Conditions: human
READOUT KIND: Papp A→B

STRUCTURE: C[C@H](Cn1cnc2c(N)ncnc21)OCP(=O)(O)Oc1ccccc1
READOUT KIND: Papp A→B
MEASUREMENT: < 20 ×10⁻⁶ cm/s

###

Tested on: SARS-COV-2 strain NIV 2020-770
Test: microbe, parasite or virus in culture
Type: cell-based
Conditions: Severe acute respiratory syndrome coronavirus 2, 72 h
pIC50: −log10 of the molar value.

COMPOUND: C[C@H](Cn1cnc2c(N)ncnc21)OCP(=O)(O)Oc1ccccc1 [Compound of formula 2, tenphenol]
TARGET OR SYSTEM: SARS-COV-2 strain NIV 2020-770
pIC50: ~4.92
--
COMPOUND: C[C@H](Cn1cnc2c(N)ncnc21)OC[P@@](=O)(OCOC(=O)C(C)(C)C)Oc1ccccc1 [fumarate]
TARGET OR SYSTEM: SARS-COV-2 strain NIV 2020-770
pIC50: > 6.00
